Molecular target: human A1AR (Homo sapiens)
Construct: purchased Perkin Elmer ES-010-M400UA
Sequence (P30542 whole entry): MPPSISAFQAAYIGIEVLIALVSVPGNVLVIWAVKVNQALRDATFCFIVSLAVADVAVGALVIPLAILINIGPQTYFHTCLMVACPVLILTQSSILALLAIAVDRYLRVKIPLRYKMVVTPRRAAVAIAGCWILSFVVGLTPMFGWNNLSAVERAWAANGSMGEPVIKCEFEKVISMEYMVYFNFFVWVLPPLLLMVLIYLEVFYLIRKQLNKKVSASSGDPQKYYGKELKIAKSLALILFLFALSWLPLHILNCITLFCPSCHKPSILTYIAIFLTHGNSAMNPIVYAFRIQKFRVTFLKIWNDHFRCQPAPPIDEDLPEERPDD
Experiment: Competitive radioligand binding vs [3H]CCPA
Details: apparent Ki for irreversibly binding ligands; three independent experiments; read-out: A1AR vs. Radioligand [3H]CCPA Ki ± SEM
Protocol: The potentially irreversible xanthine derivatives were investigated for their binding affinity at human A2BARs and for their selectivity versus the other human AR subtypes, A1, A2A, and A3, by competitive radioligand binding experiments. […] Binding experiments were performed using 50 mM Tris buffer (pH 7.4) in a total volume of 400 µL for the A1AR, A2AAR, A3AR, and 1000 µL for the A2BAR. […] Subsequently, radioactivity was determined using a liquid scintillation counter (Tricarb 2810TR, Perkin Elmer).
pKi: −log10 of the molar value.
Listed molecules paired with reported pKi
READOUT: pKi

1) CCCn1c(=O)c2[nH]c(-c3ccc(S(=O)(=O)F)cc3)nc2n(C)c1=O [6b]    6.53
2) CCCn1c(=O)c2[nH]c(-c3ccc(S(=O)(=O)F)cc3)nc2n(C2CC2)c1=O [6c]    7.38
3) CCCn1c(=O)[nH]c2nc(-c3ccc(S(=O)(=O)F)cc3)[nH]c2c1=O [6a]    6.39

###

biological target: wildtype (wt) human A2BAR (Homo sapiens, UniProt P29275); construct: purchased Perkin Elmer ES-013-M400UA; experiment: Ligand wash-out experiments, [3H]PSB-603 binding; conditions: 2 h incubation at rt; 100-fold Ki (reversible ligands) or 10-fold Ki (irreversible ligands); extensive washing
READOUT: Inhibition of specific [3H]PSB-603 binding after wash-out (reversibility of binding)

1. CCCn1c(=O)c2[nH]c(-c3ccc(S(=O)(=O)F)cc3)nc2n(C)c1=O [6b]    full inhibition
2. CCCn1c(=O)c2[nH]c(-c3ccc(S(=O)(=O)F)cc3)nc2n(C2CC2)c1=O [6c]    full inhibition
3. CCCn1c(=O)[nH]c2nc(-c3ccc(S(=O)(=O)F)cc3)[nH]c2c1=O [6a]    full inhibition

###

Biological target: A2BAR (Homo sapiens, UniProt P29275)
Sequence (P29275 1-332): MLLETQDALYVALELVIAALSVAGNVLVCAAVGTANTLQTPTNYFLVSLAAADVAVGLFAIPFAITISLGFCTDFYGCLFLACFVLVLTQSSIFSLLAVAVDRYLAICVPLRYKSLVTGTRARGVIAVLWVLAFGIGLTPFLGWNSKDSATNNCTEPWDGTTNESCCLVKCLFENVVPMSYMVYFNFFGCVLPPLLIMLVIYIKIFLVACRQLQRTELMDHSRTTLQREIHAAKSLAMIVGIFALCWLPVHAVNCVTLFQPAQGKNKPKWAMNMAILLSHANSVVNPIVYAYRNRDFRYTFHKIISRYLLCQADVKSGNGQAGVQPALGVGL
pKi: −log10 of the molar value.
READOUT: pKi

1) CCCn1c(=O)c2[nH]c(-c3ccc(S(=O)(=O)F)cc3)nc2n(C2CC2)c1=O    7.59
2) CCCn1c(=O)[nH]c2nc(-c3ccc(S(=O)(=O)N4CCC(NC(=O)c5ccc(S(=O)(=O)F)cc5)CC4)cc3)[nH]c2c1=O    8.13
3) CCCn1c(=O)[nH]c2nc(-c3ccc(S(=O)(=O)F)cc3)[nH]c2c1=O    7.97
4) CCCn1c(=O)c2[nH]c(-c3ccc(S(=O)(=O)F)cc3)nc2n(C)c1=O    7.80

###

molecular target: human A2AAR (Homo sapiens, UniProt P29274); assay: Competitive radioligand binding vs [3H]MSX-2; settings: apparent Ki for irreversibly binding ligands; three independent experiments; read-out: A2AAR vs. Radioligand [3H]MSX-2 Ki ± SEM
Sequence (P29274 whole entry): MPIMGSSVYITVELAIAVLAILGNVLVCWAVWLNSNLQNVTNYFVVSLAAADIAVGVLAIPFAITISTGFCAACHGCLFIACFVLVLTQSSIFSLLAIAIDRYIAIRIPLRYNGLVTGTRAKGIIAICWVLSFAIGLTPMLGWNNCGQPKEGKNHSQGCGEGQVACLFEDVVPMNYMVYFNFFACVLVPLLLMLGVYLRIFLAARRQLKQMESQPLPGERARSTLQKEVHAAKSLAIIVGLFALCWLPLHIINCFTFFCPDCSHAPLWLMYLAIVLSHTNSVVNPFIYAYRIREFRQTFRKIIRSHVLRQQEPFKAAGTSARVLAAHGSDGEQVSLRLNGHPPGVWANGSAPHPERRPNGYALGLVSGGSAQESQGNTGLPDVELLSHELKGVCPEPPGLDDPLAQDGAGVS
pKi: −log10 of the molar value.
READOUT: pKi

1) CCCn1c(=O)c2[nH]c(-c3ccc(S(=O)(=O)F)cc3)nc2n(C)c1=O [6b]    6.43
2) CCCn1c(=O)c2[nH]c(-c3ccc(S(=O)(=O)F)cc3)nc2n(C2CC2)c1=O [6c]    7.14
